# Test system: UACC-257 melanoma
# RUN_DESCRIPTION: NCI tumour cell line growth inhibition, 48 h
MEASURED_PROPERTY: GI50

GI50 reported for this compound `C/C=C(\C)C(=O)O[C@@H]1C=CC(=O)O[C@H]1COC(=O)[C@H](C)O` : 13.4 µM

Kindly note the recorded GI50 for C=C(CNCCc1ccc(O)cc1)[C@@H]1CC[C@]2(CO)CC[C@]3(C)[C@H](CC[C@@H]4[C@@]5(C)CCC(NCCO)C(C)(C)[C@@H]5CC[C@]43C)[C@@H]12 (some centres not stated) , which is 1.86 µM

compound `Cc1nc(N=C(N)N)nc2ccc3ccccc3c12` , GI50 observed: 1.46 µM

Sure, the documented GI50 for `O=C(/C=C/c1cccnc1)/C=C/c1cccnc1` is 7.63 µM

GI50 in this record for `COc1ccc2c(c1)C(=O)/C(=C/c1ccc(OCC(=O)c3ccc(Cl)cc3)cc1)O2` : > 100 µM

Form: compound = `O=C1/C(=C\c2ccccc2)CN(C(=O)c2ccccc2F)C/C1=C\c1ccccc1` ; GI50 = 2.15 µM

Note to self: GI50 recorded for COc1cccc(C2C3=C(COC3=O)N(CCO)c3cc4c(cc32)CCC4)c1 (configuration not stated) was 32.6 µM

# compound `OCCC#Cc1ccccc1C#Cc1ccccc1` ; its GI50 = 22.4 µM
